- Organism: Homo sapiens
- method.summary: Compound was evaluated for the secretion of [14C]- Serotonin (Antisecretory activity)
- Format: functional

[
  {
    "molecule": "COc1cc(C[C@H]2NCCc3cc(O)c(O)cc32)cc(OC)c1OC",
    "IC50 / µM": 0.55
  },
  {
    "molecule": "COc1cc(C[C@@H]2NCCc3cc(O)c(O)cc32)cc(OC)c1OC",
    "IC50 / µM": 24.5
  },
  {
    "molecule": "COc1cc(CC2c3cc4c(cc3CCN2CCCl)OS(=O)O4)cc(OC)c1OC (stereo unspecified)",
    "IC50 / µM": 166
  },
  {
    "molecule": "COc1cc(CC2c3cc(O)c(O)cc3CCN2CCO)cc(OC)c1OC (stereo unspecified)",
    "IC50 / µM": 116
  },
  {
    "molecule": "COc1cc(CC2c3cc(O)c(O)cc3CCN2CCCl)cc(OC)c1OC (stereo unspecified)",
    "IC50 / µM": 162
  },
  {
    "molecule": "COc1cc(CC2c3cc(O)c(O)cc3CCN2Cc2ccccc2)cc(OC)c1OC (stereo unspecified)",
    "IC50 / µM": 96.5
  }
]
